The reported measurements were obtained from the supplement of paper PMC10567573.

B1: KCNK9 (parent)
chain: DVPDLQSVCSCTCYRSQDYGGRSV

# Variants of: B1
# Assay Name: protein stability index of a GFP-peptide fusion (GPS, HEK-293T) (PSI 1-6); higher = more stable;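 also: lentivirally expressed fusions sorted by FACS into six bins by GFP to DsRed ratio, PSI derived from sequencing read proportions per bin multiplied by bin number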
# Experimental Conditions: c terminus: a fixed tail appended
We use 2 as the dividing line for protein stability index: on or above the line is fulfilled, below is not fulfilled.

> print(dat)
    sequence.change          group
 1              D4M      fulfilled
 2             R15A      fulfilled
 3             Y14D  not fulfilled
 4              Q6C      fulfilled
 5             Y14W      fulfilled
 6             Q17D      fulfilled
 7             C13F  not fulfilled
 8             R22S      fulfilled
 9             Y19F      fulfilled
10             Q17N  not fulfilled
11              L5V      fulfilled
12             G21L  not fulfilled
13             G20F  not fulfilled
14             Q17E      fulfilled
15              P3Q  not fulfilled
16             G21D      fulfilled
17             R22T  not fulfilled
18             R22Y  not fulfilled
